Each recorded value in this set is attributed to PubChem BioAssay.

# ASSAYED_SYSTEM: Short transient receptor potential channel 4 (Mus musculus) (UniProt Q9QUQ5)
# Sequence (Q9QUQ5 whole entry, looked up): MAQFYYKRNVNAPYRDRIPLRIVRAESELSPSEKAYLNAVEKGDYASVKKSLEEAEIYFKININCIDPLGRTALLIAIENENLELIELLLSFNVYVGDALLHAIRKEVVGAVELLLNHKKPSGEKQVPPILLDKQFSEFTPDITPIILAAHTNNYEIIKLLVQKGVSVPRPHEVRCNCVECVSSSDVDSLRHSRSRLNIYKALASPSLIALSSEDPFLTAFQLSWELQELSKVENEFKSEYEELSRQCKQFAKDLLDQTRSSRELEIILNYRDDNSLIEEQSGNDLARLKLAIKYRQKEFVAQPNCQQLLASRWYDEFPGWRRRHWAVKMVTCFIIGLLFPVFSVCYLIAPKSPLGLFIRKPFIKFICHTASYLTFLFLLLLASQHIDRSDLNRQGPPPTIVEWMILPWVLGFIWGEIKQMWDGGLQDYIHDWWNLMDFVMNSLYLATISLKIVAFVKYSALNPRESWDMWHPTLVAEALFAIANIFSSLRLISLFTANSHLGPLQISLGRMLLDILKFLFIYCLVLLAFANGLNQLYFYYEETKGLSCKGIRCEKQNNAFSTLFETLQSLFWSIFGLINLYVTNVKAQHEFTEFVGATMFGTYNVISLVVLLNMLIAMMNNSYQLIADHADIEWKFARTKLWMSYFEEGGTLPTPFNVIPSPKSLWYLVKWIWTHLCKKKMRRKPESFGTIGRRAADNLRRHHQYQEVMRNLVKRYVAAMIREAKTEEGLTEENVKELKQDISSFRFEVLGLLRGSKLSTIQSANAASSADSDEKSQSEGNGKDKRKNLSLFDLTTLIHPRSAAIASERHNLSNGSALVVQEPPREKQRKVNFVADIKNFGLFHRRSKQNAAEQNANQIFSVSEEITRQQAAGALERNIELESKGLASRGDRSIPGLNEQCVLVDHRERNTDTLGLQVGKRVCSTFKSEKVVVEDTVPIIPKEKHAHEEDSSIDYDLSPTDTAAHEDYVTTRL
# EXPERIMENTAL_PROTOCOL: calcium flux activators in TRPC4/5HT1a cells, counter-screen for TRPC4 activator project, cell-based, second counter screen, HEK293 TRPC4/5HT1a, Fluo-4 (AID 434977)
# CONDITION_NOTES: Fluo-4 calcium flux, at 10 µM
Calls of active or inactive are those of the source.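 How the source made its calls: active means calcium signal rise above buffer-control mean plus 5 SD in both duplicates, and also a hit in the primary screen; inactive means the rest.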
Entry note: the call must match one of true (1) (active), false (0) (inactive)

Hello, I am checking results. What call was entered for N#Cc1cccc2c1-c1ccccc1/C2=N/NC(N)=O ?
false (0)

* * *

# ASSAYED_SYSTEM: Short transient receptor potential channel 4 (Mus musculus) (UniProt Q9QUQ5)
# EXPERIMENTAL_PROTOCOL: calcium entry via TRPC4 opening agents – cell-based, HEK293 TRPC4/mu-opioid, Fluo-4 calcium, dose response (AID 434937);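 further: HEK293 cells coexpressing mouse TRPC4 with mu-opioid receptor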
# CONDITION_NOTES: HEK293 TRPC4 cells, Fluo-4 calcium fluorescence ratio; series mostly up to 20 µM
Results with a measured potency or affinity are listed apart. Calls of active or inactive are those of the source.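 The calls were made as follows: active = primary screen activator hit with a dose response curve and TRPC4 channel activation at any tested dose; inactive = no activation, no dose response, or not a primary hit.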
QUANTITY: outcome

CC(C)C(=O)N1CCN(c2nc(-c3ccccc3)c3c(c2C#N)CCCC3)CC1 :: inactive
CC(C)(C)NCc1cc(Cl)ccc1OCc1cccs1 :: inactive
COc1ccc2c(c1)C=C(CN1CCC(CO)(CCc3ccccc3)CC1)CO2 :: inactive
CCN1CCN(c2ccc(S(=O)(=O)N3CCCCC3)cc2NC(=O)c2cccc(C(F)(F)F)c2)CC1 :: inactive
C=CCOc1ccc(C2CC(C)=NN2c2ccccc2)cc1 (stereo not drawn) :: inactive

Recorded outcome for COc1ccc(CNC(=O)C(C)NCc2ccc(S(N)(=O)=O)cc2)cc1 (stereo not drawn) , please?
inactive

Recorded outcome for Cc1cccc(/C=N/NC(=O)c2cccc(Cl)c2)n1 , please?
inactive

Recorded outcome for CCCCCCCCCC[n+]1cccc2c3ccccc3ccc21 , please?
inactive
